The reported numbers originate from patent US20260209152A1.

# System: Bladder RT-112
# PROCEDURE_SUMMARY: CellTiter Glo cell viability assay
# Type: cell-based, human
# ASSAY_CONDITIONS: Homo sapiens, RT-112, 120 h, Day 5 upon drug treatment; 10 dosages 0.0001-20 μM (Compound 8: 18 dosages 0.000038146 to 5 μM); read-out: IC50
The reader will find reported pIC50 values listed item by item below.
In plain terms, pIC50 is the concentration in mol/L turned into minus its base-10 logarithm.

Here are 2 compounds together with their reported answers.
COc1cc(/C=C/c2cc(O)cc(OC)c2CC=C(C)C)ccc1NC(C)=O = 7.12
COc1cc(/C=C/c2cc(O)cc(OC)c2CC=C(C)C)ccc1O = 7.54

Exercise: Find the recorded pIC50 belonging to "COc1cc(/C=C/c2cc(O)cc(OC)c2CC=C(C)C)cc(C)c1O" and report it.
Solution: 6.94

Exercise: Then what about the compound "COC(=O)CNc1ccc(/C=C/c2cc(O)cc(OC)c2CC=C(C)C)cc1OC" ?
Solution: 7.02

Exercise: Quick one: "COc1cc(/C=C/c2cc(O)cc(OC)c2CC=C(C)C)ccc1N"
Solution: 7.17

----------
# Test system: Bladder RT-112
# PROCEDURE_SUMMARY: CellTiter Glo cell viability assay
# Type: cell-based, human
# ASSAY_CONDITIONS: Homo sapiens, RT-112, 72 h, 3 Days of treatment; 18 2-fold dilutions 5-0.00003 μM; read-out: Average IC50
# Procedure: 1.7*10^3 cells/well were seeded in quadruplicates in 96-well plate after plating. Drugs were added at 5 μM and 2-fold dilutions over 18 concentrations (0.000038146-5 […] range) to generate a dose-response curve. Cell growth was assessed on day 1, 3 and 5 after drug treatments using the CellTiter Glo Luminescence Cell Viability Assay (Promega) according to manufacturer's protocol. Thermo Scientific Varioskan LUX Multimode Microplate instrument was used for plate reading. […]
The following compounds are listed with their measured IC50 values.
State just the number; it will be interpreted in nM.

CCOc1cc(O)cc(/C=C/c2ccc(O)c(OC)c2)c1CC=C(C)C = 3.63

Could you now consider this next compound?
Exercise: Entry "COc1cc(/C=C/c2cc(O)cc(OC)c2CC=C(C)C)ccc1O" : reported IC50 = ?
Solution: 52.9

----------
Below: a set of entries, each annotated with reported pIC50.
# Tested on: Pancreatic HPAFII
# PROCEDURE_SUMMARY: CellTiter Glo cell viability assay
# Assay type: cell-based, human
# ASSAY_CONDITIONS: Homo sapiens, HPAF-II, 72 h; 3 Days of treatment; 18 2-fold dilutions 5-0.00003 μM; read-out: Average IC50
Keep it numeric: pIC50 is minus log10 of the concentration in mol/L.

Exercise: Sample CCOc1cc(O)cc(/C=C/c2ccc(O)c(OC)c2)c1CC=C(C)C [Compound 8] — what was its pIC50?
Solution: 6.39

Exercise: Try COc1cc(/C=C/c2cc(O)cc(OC)c2CC=C(C)C)ccc1O [Compound 1] next.
Solution: 5.97

----------
# Test system: Pancreatic CAPAN-1
# PROCEDURE_SUMMARY: CellTiter Glo cell viability assay
# Type: cell-based, human
# ASSAY_CONDITIONS: Homo sapiens, CAPAN-1, 72 h; 3 Days of treatment; 18 2-fold dilutions 5-0.00003 μM; read-out: Average IC50
# Experimental: 1.7*10^3 cells/well were seeded in quadruplicates in 96-well plate after plating. Drugs were added at 5 μM and 2-fold dilutions over 18 concentrations (0.000038146-5 […] range) to generate a dose-response curve. Cell growth was assessed on day 1, 3 and 5 after drug treatments using the CellTiter Glo Luminescence Cell Viability Assay (Promega) according to manufacturer's protocol. Thermo Scientific Varioskan LUX Multimode Microplate instrument was used for plate reading. […]
The compounds listed here are annotated with their pIC50.
Reminder that pIC50 means the negative base-10 logarithm of the concentration expressed in mol/L.

COc1cc(/C=C/c2cc(O)cc(OC)c2CC=C(C)C)ccc1O = 5.21

Exercise: Which pIC50 value is on record for "CCOc1cc(O)cc(/C=C/c2ccc(O)c(OC)c2)c1CC=C(C)C" ?
Solution: 5.33

----------
# Test system: Kidney 769-P
# PROCEDURE_SUMMARY: CellTiter Glo cell viability assay
# Type: cell-based
# ASSAY_CONDITIONS: Homo sapiens, 769-P, 72 h; 3 Days of treatment; 18 2-fold dilutions 5-0.00003 μM; read-out: Average IC50
ATTRIBUTE_MEASURED: IC50 (nM)
API: value field is a number in nM; no unit string.

Exercise: Write down the reported IC50 of CCOc1cc(O)cc(/C=C/c2ccc(O)c(OC)c2)c1CC=C(C)C [Compound 8] , test system: Kidney 769-P.
Solution: 33.7

----------
# System: Pancreatic MIA PaCa-2
# PROCEDURE_SUMMARY: CellTiter Glo cell viability assay
# Type: cell-based, human
# ASSAY_CONDITIONS: Homo sapiens, MIA PaCa-2, MIA PaCa-2/CRL-1420; 11 dilutions 3-0.00001 μM; Table 6; read-out: IC50
ATTRIBUTE_MEASURED: IC50 (nM)
The reply should contain only the number, in nM.

These solved cases illustrate the format of a correct answer.
CCOc1cc(O)cc(/C=C/c2ccc(O)c(OC)c2)c1CC=C(C)C [Compound 8] = 23.4
CCOc1cc(O)cc(/C=C/c2ccc(NC=O)c(OC)c2)c1CC=C(C)C [Compound 28] = 12.9

Exercise: GET /values?readout=IC50&system=Pancreatic MIA PaCa-2&item= CCOc1cc(O)cc(/C=C/c2ccc(O)c(O)c2)c1CC=C(C)C [Compound 20]
Solution: 54.9

Exercise: Repeat with COc1cc(/C=C/c2cc(O)cc(OC)c2CC=C(C)C)ccc1O [Compound 1]
Solution: 109

Exercise: Check COc1cc(/C=C/c2cc(O)cc(OC)c2CC=C(C)C)ccc1NC=O [Compound 27] too.
Solution: 21.4

----------
# Tested on: Rhabomyosarcoma SJCRH30
# PROCEDURE_SUMMARY: CellTiter Glo cell viability assay
# Assay type: cell-based, human
# ASSAY_CONDITIONS: Homo sapiens, 72 h; 3 Days of treatment; 18 2-fold dilutions 5-0.00003 μM
# Method: 1.7*10^3 cells/well were seeded in quadruplicates in 96-well plate after plating. Drugs were added at 5 μM and 2-fold dilutions over 18 concentrations (0.000038146-5 […] range) to generate a dose-response curve. Cell growth was assessed on day 1, 3 and 5 after drug treatments using the CellTiter Glo Luminescence Cell Viability Assay (Promega) according to manufacturer's protocol. Thermo Scientific Varioskan LUX Multimode Microplate instrument was used for plate reading. […]
ATTRIBUTE_MEASURED: IC50

Exercise: What IC50 value was documented for this compound, "CCOc1cc(O)cc(/C=C/c2ccc(O)c(OC)c2)c1CC=C(C)C" ?
Solution: 43.4 nM

----------
# Test system: Kidney ACHN
# PROCEDURE_SUMMARY: CellTiter Glo cell viability assay
# Assay type: cell-based
# ASSAY_CONDITIONS: Homo sapiens; ACHN/CRL-1611; 11 dilutions 3-0.00001 μM
Values of IC50 strictly less than 80 nM map to Met, and values of at least 80 nM map to Not met.

Exercise: Bench note: check whether "COc1cc(/C=C/c2cc(O)cc(OC)c2CC=C(C)C)ccc1O" shows IC50 below 80 nM
Solution: Not met

Exercise: Next: "CCOc1cc(O)cc(/C=C/c2ccc(O)c(O)c2)c1CC=C(C)C"
Solution: Not met

Exercise: What do you get for "CCOc1cc(O)cc(/C=C/c2ccc(NC=O)c(OC)c2)c1CC=C(C)C" ?
Solution: Met

Exercise: Quick one: "COc1cc(/C=C/c2cc(O)cc(OC)c2CC=C(C)C)ccc1NC=O"
Solution: Met

Exercise: Quick one: "CCOc1cc(O)cc(/C=C/c2ccc(O)c(OC)c2)c1CC=C(C)C"
Solution: Met

----------
pIC50 values, listed per item
# Test system: Osteosarcomas KHOS_312H
# PROCEDURE_SUMMARY: CellTiter Glo cell viability assay
# Assay type: cell-based, human
# ASSAY_CONDITIONS: Homo sapiens, 72 h; 3 Days of treatment; 18 2-fold dilutions 5-0.00003 μM
The value called pIC50 is obtained by taking minus log10 of the concentration in mol/L.

CCOc1cc(O)cc(/C=C/c2ccc(O)c(OC)c2)c1CC=C(C)C = 7.44

Exercise: Please report the recorded pIC50 for "COc1cc(/C=C/c2cc(O)cc(OC)c2CC=C(C)C)ccc1O" .
Solution: 6.45

----------
# Tested on: IL-17A secretion from human PBMC stimulated with antiCD3/antiCD28-coated beads
# PROCEDURE_SUMMARY: PBMC IL-17 assay (assay number 1321)
# Format: cell-based
# ASSAY_CONDITIONS: highest effect as percentage of control maximum effect
Exam item: assign true (1) to entries whose Max Eff.: IL-17 (1321) is below 60% and false (0) to entries at or above 60%. Note that a value of exactly 60% receives false (0).

Study these solved cases before continuing.
COc1cc(/C=C/c2cc(O)cc(OC)c2CC=C(C)C)ccc1O [Compound 1] = true (1)
COc1cc(/C=C/c2cc(O)cc(OC)c2CC=C(C)C)ccc1NC(=O)CN [Compound 31] = true (1)
CCOc1cc(O)cc(/C=C/c2ccc(NC=O)c(OC)c2)c1CC=C(C)C [Compound 28] = false (0)
CCOc1cc(O)cc(/C=C/c2ccc(O)c(O)c2)c1CC=C(C)C [Compound 20] = false (0)
CCOc1cc(O)cc(/C=C/c2ccc(O)c(OC)c2)c1CC=C(C)C [Compound 8] = false (0)

Exercise: hey, is Max Eff.: IL-17 (1321) for COc1cc(/C=C/c2cc(O)cc(OC)c2CC=C(C)C)ccc1NC=O [Compound 27] lower than 60% or not?
Solution: false (0)

Exercise: Moving on to the next compound: CCOc1cc(O)cc(/C=C/c2ccc(NC(=O)C(=O)O)c(OC)c2)c1CC=C(C)C [Compound 35]
Solution: true (1)
